Target: hNABP1 (hSSB2) (human, UniProt Q96AH0 1-204)
Sequence (Q96AH0 whole entry): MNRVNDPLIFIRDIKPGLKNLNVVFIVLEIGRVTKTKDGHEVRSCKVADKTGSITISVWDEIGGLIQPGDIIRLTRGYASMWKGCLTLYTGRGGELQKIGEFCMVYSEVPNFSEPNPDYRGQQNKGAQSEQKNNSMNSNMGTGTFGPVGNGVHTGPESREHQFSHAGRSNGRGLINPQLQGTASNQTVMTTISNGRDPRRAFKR
Assay: EMSA; EMSA: 20 mM HEPES pH 7.3, 100 mM KCl, 1 mM MgCl2, 1 mg/ml BSA, 1 mM DTT, 6% glycerol, 0.5 nM 32P substrate, 30 min on ice; 5% native PAGE, 1x TBE, 4°C
Details: protein: recombinant; tags: His; label: 5'-32P
observation-type: pKd
// returns pKd (minus log10 of molar concentration), number only

Using the record for TTTTTTTTTTTTTTTTTTTTTTTTTTTTTT (ssDNA) [dT30] , report its pKd.
6.82
